Data provenance: the supplement of paper PMC3342239

System: Saccharomyces cerevisiae
ASSAY_TEXT: fraction of cells in G1 phase (DNA content, flow cytometry); higher = more cells with unreplicated DNA (G1 delay)
ASSAY_CONDITIONS: temperature: 30 C; YPD; JTY2953 pdr5 snq2 (sensitized); drug added to: cultures diluted from stationary phase; 6-7 h
Counter-ions that a name gives are not always drawn.
VALUE_TYPE: fraction of cells in G1 phase

[[record]]
compound = "CN(C)CCCN1c2ccccc2Sc2ccc(Cl)cc21 [Chlorpromazine HCl] (62.7212 µM)"
measured_number = 0.278

[[record]]
compound = "CC(=O)Nc1ccc(OCC(O)CNC(C)C)cc1 (stereo unspecified) [Practolol] (75.0911 µM)"
measured_number = 0.506

[[record]]
compound = "CS(=O)(=O)Nc1ccc([N+](=O)[O-])cc1Oc1ccccc1 [Nimesulide] (64.8687 µM)"
measured_number = 0.58

[[record]]
compound = "Nc1ccc(S(=O)(=O)Nc2ncccn2)cc1 [Sulfadiazine] (79.9102 µM)"
measured_number = 0.521

[[record]]
compound = "Cc1nccn1CC1CCc2c(c3ccccc3n2C)C1=O (stereo unspecified) [Ondansetron] (68.1729 µM)"
measured_number = 0.463

[[record]]
compound = "CCOC(=O)[C@H](CCc1ccccc1)N[C@@H](C)C(=O)N1[C@H](C(=O)O)C[C@@H]2CCC[C@@H]21 [Ramipril] (48.0167 µM)"
measured_number = 0.482

[[record]]
compound = "Clc1ccc(COC(Cn2ccnc2)c2ccc(Cl)cc2Cl)c(Cl)c1 (stereo unspecified) [Miconazole] (48.0611 µM)"
measured_number = 0.869

[[record]]
compound = "CN(C)CCOc1ccc(/C(=C(/CCCl)c2ccccc2)c2ccccc2)cc1 [Toremifene] (49.2645 µM)"
measured_number = 0.901

[[record]]
compound = "COc1ncnc(NS(=O)(=O)c2ccc(N)cc2)c1OC [Sulfadoxine] (64.4467 µM)"
measured_number = 0.474

[[record]]
compound = "COc1ccc2c3c1O[C@H]1C[C@@H](O)C=C[C@@]31CCN(C)C2 [Galanthamine HBr] (69.5987 µM)"
measured_number = 0.538

[[record]]
compound = "NC(=O)OCC(COC(N)=O)c1ccccc1 [Felbamate] (83.9631 µM)"
measured_number = 0.505

[[record]]
compound = "COc1cc(C(=O)OCCCN2CCCN(CCCOC(=O)c3cc(OC)c(OC)c(OC)c3)CC2)cc(OC)c1OC [Dilazep] (33.074 µM)"
measured_number = 0.47

[[record]]
compound = "N=C(N)c1ccc(OCCCCCOc2ccc(C(=N)N)cc2)cc1 [Pentamidine] (58.7494 µM)"
measured_number = 0.521

[[record]]
compound = "CC12CC3CC(C)(C1)CC(N)(C3)C2 [Memantine HCl] (111.54 µM)"
measured_number = 0.532

[[record]]
compound = "COc1ccc2cc(CCC(C)=O)ccc2c1 [Nabumetone] (87.6065 µM)"
measured_number = 0.535

[[record]]
compound = "COc1cccc2c1C(=O)c1c(O)c3c(c(O)c1C2=O)C[C@@](O)(C(C)=O)C[C@@H]3O[C@H]1C[C@H](N)[C@H](O)[C@H](C)O1 [Daunorubicin HCl] (37.9123 µM)"
measured_number = 0.596

